system: P. falciparum NF54-pfs16-GFP late (IV-V) stage gametocytes; assay: relative % inhibition of viable gametocyte number; higher = more gametocytocidal; details: 0.5 µM; stage: late (IV-V) gametocyte; incubation 72 h
recordedEndpoint: relative % inhibition

1. COc1ccc(C(=O)Nc2ccc(Cl)cc2C(=O)Nc2ccncc2)cc1 = -6.74%
2. CCCCC(O)(c1ccc(Cl)cc1)C(CN1CCOCC1)c1ccc(Cl)cc1 (centres undefined) = -3.8%
3. COc1ccc(C(O)(CCC(C)C)C(CN2CCOCC2)c2ccc(Cl)cc2)cc1 (centres undefined) = 12.1%
4. Cc1ccnc(NC(c2cccc(OCc3ccccc3)c2)c2ccc3cccnc3c2O)c1 (centres undefined) = 9.51%
5. CCC(c1ccccc1)c1nn2c(-c3cccs3)nnc2s1 (centres undefined) = 8.5%
6. CCOC(=O)c1cnc2c(CC)cccc2c1O = 21.6%
7. Clc1ccc2c(N3CCCC3)ccnc2c1 = 11.2%
8. CCOc1cc(Cl)c(C(C)NC(=O)c2ccccc2)cc1OCC (centres undefined) = 8.2%
9. COc1ccc(-c2cn3c(C(=O)Nc4ccccc4Cl)c(-c4ccccc4)c4c3n2CCCC4)cc1 = 4.28%
10. CC(C)c1ccc(CNCC(O)c2ccccc2)cc1 (centres undefined) = 17.3%
11. COc1cccc(C2(C)Nc3ccccc3-c3nc4ccccc4n32)c1 (centres undefined) = 27.8%
12. COc1cccc(NC(=O)Cn2c(C)c(C#N)c3ccccc32)c1 = -4.97%
13. Cc1ccc(-c2cc3nc4c(c(O)n3n2)CCCC4)cc1 = 4.75%
14. CCOC(=O)C1=C(C)N=c2sc(=Cc3ccccc3O)c(=O)n2C1c1ccc(OC)c2ccccc12 (centres undefined) = 65.8%

* * *

system: P. falciparum NF54-pfs16-GFP late (IV-V) stage gametocytes; assay: relative % inhibition of viable gametocyte number; higher = more gametocytocidal; settings: 0.5 µM; stage: late (IV-V) gametocyte; incubation 72 h
recordedEndpoint: relative % inhibition (%)

1) Cc1cc(C=C2SC(=Nc3ccccc3)N(C3CCCC3)C2=O)c(C)n1-c1ccc(Cl)cc1 = -2.31
2) CCOC(=O)c1cnc2c(C)cccc2c1Nc1ccc(C(C)=O)cc1 = 7.91
3) CC(C)(C)CC(C)(C)NCC(O)COc1ccc2c(c1)CCC2 (configuration not stated) = 17.6
4) O=C(Nc1ccc(CN2CCOCC2)cc1)c1ccc(-c2cc(Cl)ccc2Cl)o1 = -18.1
5) N=c1n(CCN2CCCCC2)c2ccccc2n1CC(=O)c1ccc(Cl)c(Cl)c1 = 55.4
6) Oc1ccc(-c2nc(-c3ccc4oc5ccc(-c6[nH]c(-c7ccc(O)cc7)nc6-c6ccccc6)cc5c4c3)c(-c3ccccc3)[nH]2)cc1 = 3.61
7) Cc1cccc(N2C(=O)C3C(C2=O)C2(c4ccccc4)C(=O)C3(c3ccccc3)C(c3ccc4c(c3)OCO4)=C2c2ccc3c(c2)OCO3)c1 (configuration not stated) = 24.7
8) Cc1ccc(Nc2nc(-c3ccccn3)cs2)cc1 = 95.4
9) N=c1c2ccccc2nnn1-c1cccc(C(F)(F)F)c1 = 14.7
10) COc1ccccc1CNC(=O)CCn1c(=O)[nH]c2ccccc2c1=O = -5.22
11) Cc1ccc(-c2cc(C(=O)Nc3ccc(S(=O)(=O)N4CCCCC4)cc3)[nH]n2)c(O)c1 = -1.52
12) O=C(Nc1ccc(N2CCCCC2)c(Cl)c1)c1ccc(Br)o1 = 6.1
13) CCOC(=O)c1cnc2ccc(OC)cc2c1NCc1ccccc1 = 10.1
14) CCOc1ccccc1CN1CCc2nc3cc(C(C)(C)C)nn3c(O)c2C1 = 66.3
15) COc1ccc(C2C(C(=O)Nc3cccc(OC)c3)c3ccccc3C(=O)N2C2CCCCC2)cc1 (configuration not stated) = 5.71
16) CSC1=NC(=Nc2c(C)cccc2C)C2(CCC(C(C)(C)C)CC2)N1c1ccc(Cl)cc1 (configuration not stated) = 93.4
17) OC(CNCC1CCCO1)Cn1c2ccc(Cl)cc2c2cc(Cl)ccc21 (configuration not stated) = 45.5
18) Oc1c2c(nc3cc(-c4ccccc4)nn13)CCCC2 = -4.66
19) CC(O)(c1ccc(Cl)cc1)C(CN1CCCCC1)c1ccccc1 (configuration not stated) = 14
20) CC(=O)Nc1nnc(SCc2c(C)cc(C(C)(C)C)cc2C)s1 = -4.86
21) CCc1ccc(Nc2cc(C)nc3nc(C)nn23)cc1 = 4.51
22) CN(C)CCNc1cc(-c2ccccc2)nc2ccccc12 = -18.3
23) c1ccc(Cn2c(N=Nc3c(Nc4ccccc4)ccc4ccccc34)nc3ccccc32)cc1 = 102
24) O=C(NCC1Cc2cccc(-c3ccncc3)c2O1)c1csc2c1CCCC2 (configuration not stated) = 5.28
25) Cc1ccc(C2CC(C(F)(F)F)n3nc(C(=O)N4CCN(C(c5ccccc5)c5ccccc5)CC4)cc3N2)cc1 (configuration not stated) = 17.1
26) COc1cccc(Nc2nc(N)c3ccccc3n2)c1 = 7.14
27) COCCNCC(O)Cn1c2ccc(Cl)cc2c2cc(Cl)ccc21 (configuration not stated) = 52.3
28) COc1ccc(CCn2c(=N)c(C(=O)NCc3cccnc3)cc3c(=O)n4cccc(C)c4nc32)cc1 = -7.36
29) CN1CCN(c2c3c(c(C#N)c4nc5ccccc5n24)CCC3)CC1 = -1.94
30) CCCCc1c(CCC)c(=N)c2ccccc2n1C = 18.3
31) CCCCc1c(C)nc2c(OC)cccc2c1O = 35.7
32) Clc1ccc2[nH]c3c(NCCCN4CCOCC4)ncnc3c2c1 = 12.4

* * *

test system: P. falciparum NF54-pfs16-GFP late (IV-V) stage gametocytes; test: relative % inhibition of viable gametocyte number; higher = more gametocytocidal; settings: 5 µM; stage: late (IV-V) gametocyte; incubation 72 h
Reported relative % inhibition values for a set of compounds
recordedEndpoint: relative % inhibition (%)

1. COc1ccc(C(=O)Nc2ccc3nc(N4CCCCC4)cc(C)c3c2)cc1OC = 51.2
2. Cc1ccc(-c2nc3ccccc3o2)cc1NCc1cc(Cc2ccccc2)ccc1O = 48.6
3. O=C(NCc1ccco1)C1CCN(S(=O)(=O)c2ccc(Br)cc2)CC1 = 51.5

* * *

test system: P. falciparum NF54-pfs16-GFP early (I-III) stage gametocytes; assay: relative % inhibition of viable gametocyte number; higher = more gametocytocidal; settings: 0.5 µM; stage: early (I-III) gametocyte; incubation 72 h
recordedEndpoint: relative % inhibition

1) CCCc1c(C)nc2ccc(Br)cc2c1O = 4.64%
2) O=c1nc(C=Cc2ccc(Cl)cc2)oc2ccccc12 = 10.5%
3) O=C(Nc1ccc(Cl)cc1C(=O)Nc1ccncc1)c1ccc(Cl)cc1Cl = 20.3%
4) O=C(Nc1ccc(F)c(Cl)c1)Nc1ccc(Cl)c(Cl)c1 = 6.15%
5) CCOc1cc(Br)c(C(C)NC(=O)c2cccc(OC)c2)cc1OCC (stereo not given) = 9.37%

* * *

tested on: P. falciparum NF54-pfs16-GFP late (IV-V) stage gametocytes; assay: relative % inhibition of viable gametocyte number; higher = more gametocytocidal; settings: 0.5 µM; stage: late (IV-V) gametocyte; incubation 72 h
Where relative % inhibition equals or exceeds 20%, the correct label is T; where it does not, the label is F.

1) O=C(NC1CCCCC1)C(c1cccs1)N(CCc1ccccc1)C(=O)c1ccco1 (configuration not stated) = F
2) Cc1ccc(N2C(=O)C3C(C2=O)C2(c4ccccc4)C(=O)C3(c3ccccc3)C(c3ccccc3)=C2c2ccccc2)cc1 (configuration not stated) = T
3) CCOC(=O)c1cnc2c(C)cc(C)cc2c1Nc1ccc(OC)c(OC)c1 = F
4) O=c1nc(C=Cc2ccc(Br)cc2)oc2ccccc12 = F
5) COc1ccc(C=C2SC(Nc3ccc(F)cc3)=NC2=O)c(OC)c1 = T
6) COc1ccc(-c2c(C)nn3c(N)c(C#N)cnc23)cc1OC = T
7) COc1ccc(C)c2sc(N(Cc3cccnc3)C(=O)c3ccc(C#N)cc3)nc12 = F
8) COc1ccc(-c2nc(NC(=O)CS(=O)(=O)c3ccc(F)cc3)sc2C)cc1 = T
9) CCN(CC)CCNc1ncnc2c1[nH]c1ccc(Cl)cc12 = F
10) COc1cccc(Nc2nc(NCCO)c3ccccc3n2)c1 = F
11) O=C(Nc1ccc(F)c(Cl)c1)Nc1ccc(Cl)c(Cl)c1 = F

* * *

tested on: P. falciparum NF54-pfs16-GFP early (I-III) stage gametocytes; assay: relative % inhibition of viable gametocyte number; higher = more gametocytocidal; conditions: 5 µM; stage: early (I-III) gametocyte; incubation 72 h
Reported relative % inhibition values for a set of compounds
recordedEndpoint: relative % inhibition (%)

1) CCCCCn1c(=N)n(CC(O)COc2cccc(C)c2)c2ccccc21 (centres undefined) = 74.5
2) COCCn1c(C)nc2ccccc2c1=O = 10.1
3) CCCCN(CCCC)S(=O)(=O)c1ccc(NC(=O)c2ccco2)cc1 = 7.65
4) O=C1c2ccccc2-c2nnc(-c3ccc(Br)cc3)cc21 = 10
5) O=c1nc(C=Cc2ccc(Cl)cc2)oc2ccccc12 = -14.5
6) CC(C)(C)c1ccc2c(c1)CN(Cc1ccc(Cl)cc1)CO2 = 98.4
7) CCCc1c(C)nc2ccc(Br)cc2c1O = -4.44
8) COc1ccc(NC(=O)C2c3ccccc3C(=O)N(CC(C)C)C2c2cccs2)cc1 (centres undefined) = 102
9) O=C(Nc1cccc(C(F)(F)F)c1)c1cc(Cl)ccc1O = 104
10) COc1ccc(CN2CCCC(C(=O)c3ccc(C(F)(F)F)cc3)C2)c(O)c1 (centres undefined) = 93.7
11) CCCCNc1nc(NC(C)(C)C)nc(NC(C)(C)C)n1 = 40.6
12) Cc1ccc(Cl)cc1N1CCN(CCCNC(=O)C2CCN(c3nc4ccccc4[nH]3)CC2)CC1 = 66
13) CC(C)CCNCC(O)Cn1c2ccccc2c2ccccc21 (centres undefined) = 102
14) CCOC(=O)c1cnc2ccc(OC)cc2c1Nc1ccc(N2CCN(C)CC2)cc1 = 24.4
